# system name: adenosine A2a receptor (Homo sapiens, UniProt P29274)
# Sequence (P29274 whole entry): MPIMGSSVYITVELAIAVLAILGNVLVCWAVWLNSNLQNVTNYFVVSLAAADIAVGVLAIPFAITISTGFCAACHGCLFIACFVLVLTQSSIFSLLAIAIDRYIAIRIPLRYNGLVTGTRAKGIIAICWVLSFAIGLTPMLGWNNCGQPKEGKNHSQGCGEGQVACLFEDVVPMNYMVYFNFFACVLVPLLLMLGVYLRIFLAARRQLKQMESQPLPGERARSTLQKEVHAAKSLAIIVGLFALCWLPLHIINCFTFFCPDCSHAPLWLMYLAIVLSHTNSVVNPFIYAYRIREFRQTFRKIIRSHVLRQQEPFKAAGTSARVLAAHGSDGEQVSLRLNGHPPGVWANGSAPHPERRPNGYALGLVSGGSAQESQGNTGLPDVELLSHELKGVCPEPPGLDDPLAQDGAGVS
# assay overview: Indirect determination of adenosine agonism by way of gene expression (cAMP-dependent luciferase reporter), A2a cells
# condition: stably transfected CHO cells; 50% of the maximum stimulation of luciferase
# From the text: B-1. Indirect determination of the adenosine agonism by way of gene expression Cells of the CHO (Chinese Hamster Ovary) permanent line are transfected stably with the cDNA for the adenosine receptor subtypes A1, A2a and A2b. The adenosine A1 receptors are coupled to the adenylate cyclase by way of Gi proteins, while the adenosine A2a and A2b receptors are coupled by way of Gs proteins. In correspondence with this, the formation of cAMP in the cell is inhibited or stimulated, respectively. […]
pEC50: −log10 of the molar value.
readout: pEC50

Worked examples, 5 compounds total:
| smiles | system name | readout | recorded result |
| --- | --- | --- | --- |
| COC(=O)Cn1c(C(=O)OC)c(N)c2c(-c3ccc(OCCO)cc3)c(C#N)c(SCc3csc(-c4ccc(Cl)cc4)n3)nc21 | adenosine A2a receptor (Homo sapiens, UniProt P29274) | pEC50 | 6.82 |
| COC(=O)c1[nH]c2nc(SCc3csc(-c4ccc(Cl)cc4)n3)c(C#N)c(-c3ccc(OCCO)cc3)c2c1N | adenosine A2a receptor (Homo sapiens, UniProt P29274) | pEC50 | 6.17 |
| COC(=O)c1c(N)c2c(-c3ccc(OCCO)cc3)c(C#N)c(SCc3csc(-c4ccc(Cl)cc4)n3)nc2n1C | adenosine A2a receptor (Homo sapiens, UniProt P29274) | pEC50 | 6.77 |
| COC(=O)c1c(N)c2c(-c3ccc(OCCO)cc3)c(C#N)c(SCc3cccc(C(N)=O)c3)nc2n1C | adenosine A2a receptor (Homo sapiens, UniProt P29274) | pEC50 | 6.36 |
| COC(=O)c1c(N)c2c(-c3ccc(OCCO)cc3)c(C#N)c(SCc3ccc(OC)nc3)nc2n1C | adenosine A2a receptor (Homo sapiens, UniProt P29274) | pEC50 | 6.70 |

a = COC(=O)c1c(N)c2c(-c3ccc(OCCO)cc3)c(C#N)c(SCc3cccc(C#N)c3)nc2n1C
b = COC(=O)c1c(N)c2c(-c3ccc(OC[C@@H](O)CO)cc3)c(C#N)c(SCc3csc(-c4ccc(Cl)cc4)n3)nc2n1C
Given a and b , report the one with the higher recorded pEC50. Provide the label of your selected option as the answer.
a
(a: 7.14, b: 5.80)
